Data credit: PubChem BioAssay

Please provide measured composite z-score for the entries that follow.
# System: Plasmodium falciparum Sir2 (PF13_0152, Sir2A)
# protocol.details: pfSir2 binders on small-molecule microarrays, primary screen, biochemical, small-molecule microarray, 635 nm fluorescence (AID 1098);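 further: score merges spot fluorescence intensity with its signal-to-noise ratio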
# study.conditions: small-molecule microarray binding, fluorescence 635 nm; higher = more signal

compound	composite z-score
CCCNC(=O)OC[C@H]1O[C@H](CCON=Cc2ccc(C(=O)N3[C@H](c4ccc(C)cc4)[C@@H](C)CC[C@H]3C(=O)OC)cc2)C=C[C@@H]1Oc1ccc(OC)cc1	0.463
C[C@H]1COC(=O)[C@@H]2CCCN2C(=O)[C@@H](C)COC(=O)[C@H](Cc2ccccc2)NC1=O	0.878

Read the next record carefully.
Any idea what composite z-score was measured for CCOC(=O)[C@H](CC(C)C)NC(=O)CCC1CC(OC(=O)NCc2cccc3ccccc23)CC2(CCCC(COC(=O)NCc3ccncc3)O2)O1 (stereo partly drawn) ? 0.741

====

# target.system: Carbonic anhydrase 2 (Homo sapiens) (UniProt P00918)
# protocol.details: CAII small-molecule binders, profiling panel, biochemical, small-molecule microarray, Alexa647-labelled CAII (AID 1122)
# study.conditions: CAII-A647 binding fluorescence, higher = more signal
Would you mind telling me the reported composite z-score of each entry?
One number for each entry.

Please review the following examples before continuing.
CSCC[C@@H]1NC(=O)CC=C[C@@H](C)COC(=O)[C@@H](C)COC1=O -0.762
COC(=O)CC=C[C@@H](C)[C@@H](C=NOC[C@H]1O[C@H](c2ccccc2)C=C[C@@H]1Oc1ccc(OC)cc1)NS(=O)(=O)c1ccc(C)cc1 -0.648
O=C(NN=C1C[C@@H](O)[C@@H](O)[C@@H]2[C@@H]3C(=O)N(Cc4ccccc4)C(=O)[C@@H]3CC[C@@H]12)OCc1ccccc1 -0.362
COC(=O)C=CCCc1coc(C=CCNC(=O)OC)n1 0.492
COc1ccc(O[C@@H]2[C@H](O)CO[C@H]2C=Cc2ccccc2)cc1 -0.338
CC(C)(C)N1C(=O)[C@H]2[C@H]3[C@H](O)[C@H](O)CC(=O)[C@@H]3CC[C@H]2C1=O 0.113

Would you mind listing composite z-score for each of the following compounds?
1. CO[C@H]1COC(=O)[C@H](C)NC(=O)CC=C[C@@H](C)[C@H](OC)COC(=O)[C@@H](OCc2ccccc2)C=C[C@@H]1C
2. CC(C)=CCCC(C)=CCON=C1C[C@@H](O)[C@@H](O)[C@@H]2[C@@H]3C(=O)N(c4ccc(F)cc4F)C(=O)[C@@H]3CC[C@@H]12

1. -0.722
2. 0.29

====

# protocol.details: COS7 lysate on small-molecule microarray, probe aHis, 635 nm (AID 1123);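 further: z-score combines 667nm fluorescence intensity with signal-to-noise per printed compound spot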
# study.conditions: COS7 cell lysate, fluorescence, higher = more signal
endpoint.name: composite z-score
Answers are plain numbers.

compound	composite z-score
COC(=O)[C@@H]1CC[C@H](C)[C@@H](c2ccc(C)cc2)N1C(=O)c1ccc(C=NO[C@@H]2O[C@H](COC(C)=O)[C@@H](OC(C)=O)[C@H](OC(C)=O)[C@H]2OC(C)=O)cc1	0.234
COC(=O)CC=C[C@@H](C)[C@@H](C=NO[C@@H](C)c1cn([C@H](CO)Cc2ccccc2)nn1)OC	-0.274
Cc1ccc(S(=O)(=O)N[C@H]2COC(=O)CC=C[C@H](C)[C@@H](NS(=O)(=O)c3ccc(C)cc3)COC(=O)CC=C[C@@H]2C)cc1	-0.364
CCCNC(=O)OC[C@H]1O[C@H](CCON=C(C)C)C=C[C@@H]1Oc1ccc(OC)cc1	0.857
CCOC(=O)[C@H](CC(C)C)NC(=O)CCC1CC(OC(=O)NCc2cccc3ccccc23)CC2(CCCC(COC(=O)NCCc3ccc(Cl)cc3)O2)O1 (some centres not stated)	0.416
COc1ccc(O[C@H]2C=C[C@@H](c3ccccc3)O[C@@H]2CON=C(C)CCN2CCc3nc(-c4ccccc4)c(-c4ccccc4)cc3C2)cc1	-0.0458

Then this compound:
Look at this compound and give its reported composite z-score. C[C@H]1CC[C@H]2C(=O)OC(CO)CN2[C@@H]1c1ccc(Br)cc1 (some centres not stated) -0.416
